Form field: Effect (one value per entry).
- targetSystem: Estrogen receptor (Mus musculus) (UniProt O08537+P19785)
- Sequence (O08537 whole entry, looked up): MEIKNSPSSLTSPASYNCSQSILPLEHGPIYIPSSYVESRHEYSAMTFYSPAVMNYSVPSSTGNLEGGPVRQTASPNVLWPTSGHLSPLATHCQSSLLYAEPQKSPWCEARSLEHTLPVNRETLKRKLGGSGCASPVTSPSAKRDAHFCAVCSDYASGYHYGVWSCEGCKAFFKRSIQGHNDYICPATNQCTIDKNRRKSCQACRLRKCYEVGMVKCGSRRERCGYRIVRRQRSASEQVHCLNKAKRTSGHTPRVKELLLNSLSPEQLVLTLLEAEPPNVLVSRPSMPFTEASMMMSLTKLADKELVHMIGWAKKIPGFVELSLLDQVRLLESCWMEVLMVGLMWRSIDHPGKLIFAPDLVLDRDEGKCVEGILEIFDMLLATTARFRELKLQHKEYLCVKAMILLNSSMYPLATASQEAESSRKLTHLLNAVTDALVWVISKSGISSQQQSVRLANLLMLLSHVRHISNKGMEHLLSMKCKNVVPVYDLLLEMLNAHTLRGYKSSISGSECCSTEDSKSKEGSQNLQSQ
- Sequence (P19785 whole entry, looked up): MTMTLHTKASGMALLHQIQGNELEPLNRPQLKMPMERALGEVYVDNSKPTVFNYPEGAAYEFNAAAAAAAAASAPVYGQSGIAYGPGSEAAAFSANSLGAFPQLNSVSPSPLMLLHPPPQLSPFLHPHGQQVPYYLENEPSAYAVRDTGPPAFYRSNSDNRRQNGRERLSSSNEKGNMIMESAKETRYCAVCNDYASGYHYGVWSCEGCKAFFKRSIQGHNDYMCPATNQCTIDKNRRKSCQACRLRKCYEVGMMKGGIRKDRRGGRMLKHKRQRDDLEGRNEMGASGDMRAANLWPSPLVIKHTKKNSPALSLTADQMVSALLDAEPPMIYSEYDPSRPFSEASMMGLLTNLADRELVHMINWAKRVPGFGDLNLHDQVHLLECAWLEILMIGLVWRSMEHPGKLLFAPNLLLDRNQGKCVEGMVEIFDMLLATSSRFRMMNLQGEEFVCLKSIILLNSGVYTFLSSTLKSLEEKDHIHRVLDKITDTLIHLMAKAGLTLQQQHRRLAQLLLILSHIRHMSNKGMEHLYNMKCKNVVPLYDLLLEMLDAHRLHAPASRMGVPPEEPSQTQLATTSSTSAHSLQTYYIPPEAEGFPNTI
- assaySummary: Estrogenic activity in uterotrophic assay in immature mice at 250 ug subcutaneous dose
- Assay type: functional
property: Effect

>>> experimentalvalue("CCC1Cc2cc(OC(C)=O)ccc2-c2cc3ccc(OC(C)=O)cc3n21 (centres undefined)")
40.5
>>> experimentalvalue("CC(=O)Oc1ccc2c(c1)CC(C)n1c-2cc2cc(OC(C)=O)ccc21 (centres undefined)")
72.2
>>> experimentalvalue("CCC1Cn2c(cc3cc(OC(C)=O)ccc32)-c2ccc(OC(C)=O)cc21 (centres undefined)")
46.1
>>> experimentalvalue("CCC1Cc2cc(OC(C)=O)ccc2-c2cc3cc(OC(C)=O)ccc3n21 (centres undefined)")
53.4
